Measured Population Healthy Nuclei (%) accompanies every entry in the list below.
Tested on: Fibroblast
Assay: Multiplex assay against human fibroblast
Format: toxicity, cell-based
Settings: 48 h, 10 µM, compound concentration 10 uM, replicate 1
test.readout: Population Healthy Nuclei (%)

> print(dat)
                                    compound                   test.readout  unit.label  numeric.readout
 1  O=C(Nc1ccc(Cl)cc1)Nc1cccc(-c2cccc(N3CCCC3)n2)c1  Population Healthy Nuclei (%)           %               17
 2  O=C(Cc1ccc(-c2ccc(OCCN3CCOCC3)cc2)cn1)NCc1ccccc1  Population Healthy Nuclei (%)           %               34
 3  C=C1/C(=C\C=C2/CCC[C@]3(C)[C@@H]([C@H](C)/C=C/[C@H](C)C(C)C)CC[C@@H]23)C[C@@H](O)C[C@@H]1O  Population Healthy Nuclei (%)           %               46
 4  CNc1cc(Oc2cc(C(=O)Nc3cc(N4CCN(C)CC4)cc(C(F)(F)F)c3)ccc2C)ncn1  Population Healthy Nuclei (%)           %               10
 5  CN1C2CCC1CC(OC(c1ccc(F)cc1)c1ccc(F)cc1)C2.Cl (centres undefined)  Population Healthy Nuclei (%)           %               45
 6  CN1CCC(=C2c3ccccc3CC(=O)c3sccc32)CC1.O=C(O)/C=C/C(=O)O [KETOTIFEN FUMARATE]  Population Healthy Nuclei (%)           %               53
 7  CCc1cccc(CC)c1NC(=O)c1nn(C)c2c1CCc1cnc(Nc3ccc(C(=O)NC4CCN(C)CC4)cc3OC(F)(F)F)nc1-2  Population Healthy Nuclei (%)           %               50
 8  O=C(Nc1ccc(-c2ccnc(Nc3ccc(N4CCOCC4)cc3)n2)cc1)[C@@H]1CCCN1  Population Healthy Nuclei (%)           %               50
 9  COc1cc(N2CCN(C)CC2)ccc1Nc1ncc2c(n1)N(C)c1ccccc1C(=O)N2C  Population Healthy Nuclei (%)           %               45
10  O=C1NC(=O)C(c2cnc3ccccn23)=C1c1cn2c3c(cc(F)cc13)CN(C(=O)N1CCCCC1)CC2  Population Healthy Nuclei (%)           %               25
11  Cc1ccc(C(=O)Nc2cccc(C(F)(F)F)c2)cc1Nc1nc(-c2cccnc2)nc2c1cnn2C  Population Healthy Nuclei (%)           %               38
12  CCOc1cc(C(=O)N2CCC(N3CCN(C)CC3)CC2)ccc1Nc1ncc2c(n1)N(C1CCCC1)c1ccccc1C(=O)N2C  Population Healthy Nuclei (%)           %               26
13  CCOC(=O)c1c(C)[nH]c2ccc3c(c12)CN1CCc2cc(OC)ccc2C1O3 (centres undefined)  Population Healthy Nuclei (%)           %               50
14  Cl.O=c1c2cccn2c2ccccc2n1CCCN1CCC(c2ccc(Cl)cc2)CC1  Population Healthy Nuclei (%)           %               50

###

Test system: Fibroblast
Test: Incucyte cell viability with human fibroblast; further: filed as whole numbers so only -1 and 0 and 1 occur
Assay type: toxicity, cell-based
Conditions: 12 h, 10 µM, compound concentration 10 uM, replicate number 1, timepoint 12 hours

compound	target.or.test.system	Growth Rate
C=CC(=O)Nc1ccc2[nH]c(=O)n(C3CCN(C(=O)c4ccc(-c5nc6cc[nH]c(=O)c6cc5-c5ccccc5)cc4)CC3)c2c1	Fibroblast	1
Cn1cc(CCn2cnc(-c3cnn(C)c3)c2-c2ccc(C#N)cc2)cn1	Fibroblast	1
CO[C@@H](C)c1c(Nc2ccc([C@@H](N(C)C(=O)C3CCS(=O)(=O)CC3)C(F)(F)F)cc2)cnc2cc(Cl)nn12 [NVS-MALT1-C]	Fibroblast	1
Cl.Oc1ccc2c3c1O[C@H]1c4[nH]c5c(c4C[C@@]4(O)[C@@H](C2)N(CC2CC2)CC[C@]314)C[C@@]1(O)[C@H]2Cc3ccc(O)c4c3[C@@]1(CCN2CC1CC1)[C@H]5O4	Fibroblast	0
O=C(Nc1cccnn1)N1CCC(=Cc2cccc(Oc3ccc(C(F)(F)F)cn3)c2)CC1	Fibroblast	0
CC(C)OC(=O)C1=CN(C(=O)c2ccc(F)c(F)c2)CC(C)(C)c2c1[nH]c1ccccc21 [TUROFEXORATE ISOPROPYL]	Fibroblast	0
CCCCN(CCCC)C(=O)CN1C[C@H](c2cc(OC)c3c(c2)OCO3)[C@@H](C(=O)O)[C@@H]1CC(C)(C)CCC.Cc1ccc(S(=O)(=O)O)cc1	Fibroblast	1
FC(F)(F)c1cccc(-c2noc(-c3cc(-c4ccccc4)c(C(F)(F)F)s3)n2)c1	Fibroblast	1
CC1(C)C(=O)C(C)(C)c2cc(C(=O)Nc3ccc(C(=O)O)cc3)ccc21	Fibroblast	0
Cc1ccc(-c2cnc([C@@]3(O)CC[C@H](C(=O)O)C(C)(C)C3)s2)cc1Nc1cccc(C(F)(F)F)n1 [MRL-SYKi-NC]	Fibroblast	0
CN(C)[C@H]1CCN(c2cc(-c3ccccc3)nc3ccnn23)C1 [(S)-ZINC-3573]	Fibroblast	0
COc1cc2ncnc(Nc3ccc(F)c(Cl)c3)c2cc1NC(=O)/C=C/CN1CCCCC1 [DACOMITINIB ANHYDROUS]	Fibroblast	0
CN1C2CCC1CC(OC(c1ccc(F)cc1)c1ccc(F)cc1)C2.Cl (stereo unspecified)	Fibroblast	1
CCCCCNC(=O)NS(=O)(=O)c1cc([N+](=O)[O-])ccc1NC1CCCCC1	Fibroblast	1
O=C1NC(c2ccccn2)Sc2ccccc21 (stereo unspecified) [BTZO-4]	Fibroblast	1
Cl.O=C(c1ccc(Nc2nccc(-c3cc4ccccc4s3)n2)cc1)N1CCC(N2CCCC2)CC1	Fibroblast	0

###

Tested on: U2OS
Experiment: Multiplex assay against U2OS
Type: toxicity, cell-based
Conditions: human, 24 h, 10 µM, compound concentration 10 uM, replicate 2
Labelling field: enter True if recorded Population Mitochondria Different-Phenotype (%) is less than 60%. Enter False if it equals or exceeds that cut-off.

molecule	target.or.test.system	class.name
COC(=N)c1nc2ccc3ncnc(Nc4ccc(OC)cc4F)c3c2s1	U2OS	True
CNc1cc(Oc2cc(C(=O)Nc3cc(N4CCN(C)CC4)cc(C(F)(F)F)c3)ccc2C)ncn1	U2OS	False
Cl.Oc1ccc2c3c1O[C@H]1c4[nH]c5c(c4C[C@@]4(O)[C@@H](C2)N(CC2CC2)CC[C@]314)C[C@@]1(O)[C@H]2Cc3ccc(O)c4c3[C@@]1(CCN2CC1CC1)[C@H]5O4	U2OS	True
O=C(Cc1ccc(-c2ccc(OCCN3CCOCC3)cc2)cn1)NCc1ccccc1 [TIRBANIBULIN]	U2OS	True
CCCS(=O)(=O)Nc1ccc(F)c(C(=O)c2c[nH]c3ncc(Cl)cc23)c1F [PLX-4720]	U2OS	True
S=C(NCCCc1c[nH]cn1)NCCCN(Cc1ccc(Cl)c(Cl)c1)c1ccc(Br)cn1	U2OS	False
C=CCn1c(=O)c2cnc(Nc3ccc(N4CCN(C)CC4)cc3)nc2n1-c1cccc(C(C)(C)O)n1 [ADAVOSERTIB]	U2OS	False
CCCS(=O)(=O)c1nc(NC2CC2)cc(-c2ccc3c(ccn3C3CC(C)(C)NC(C)(C)C3)c2)n1	U2OS	False

###

System: U2OS
Experiment: Multiplex assay against U2OS
Assay type: toxicity, cell-based
Settings: human, 48 h, 1 µM, compound concentration 1 uM, replicate 2
Measured Population Pyknosed Nuclei (%) accompanies every entry in the list below.

compound	unit.label	Population Pyknosed Nuclei (%)
CCOc1cc(C(=O)N2CCC(N3CCN(C)CC3)CC2)ccc1Nc1ncc2c(n1)N(C1CCCC1)c1ccccc1C(=O)N2C	%	14
CCOC(=O)c1c(C)[nH]c2ccc3c(c12)CN1CCc2cc(OC)ccc2C1O3 (stereo not given)	%	10
O=C(Nc1ccc(-c2ccnc(Nc3ccc(N4CCOCC4)cc3)n2)cc1)[C@@H]1CCCN1	%	9
O=C1N/C(=N/c2ccccc2F)S/C1=C\c1ccc(C(=O)O)cc1	%	1
CCN1CCN(Cc2ccc(Nc3ncc(F)c(-c4cc(F)c5nc(C)n(C(C)C)c5c4)n3)nc2)CC1.CS(=O)(=O)O	%	22
COc1cc(N2CCN(C)CC2)ccc1Nc1ncc2c(n1)N(C)c1ccccc1C(=O)N2C	%	18
Cl.O=c1c2cccn2c2ccccc2n1CCCN1CCC(c2ccc(Cl)cc2)CC1	%	11
CCn1c(=O)c(-c2ccc(-c3cncs3)cc2Cl)cc2cnc(Nc3ccc(N4CCN(C)CC4)cc3)nc21	%	12
CNc1cc(Oc2cc(C(=O)Nc3cc(N4CCN(C)CC4)cc(C(F)(F)F)c3)ccc2C)ncn1	%	14
O=C1NC(=O)C(c2cnc3ccccn23)=C1c1cn2c3c(cc(F)cc13)CN(C(=O)N1CCCCC1)CC2 [LY-2090314]	%	12
O=C(Cc1ccc(-c2ccc(OCCN3CCOCC3)cc2)cn1)NCc1ccccc1 [TIRBANIBULIN]	%	32
C=C1/C(=C\C=C2/CCC[C@]3(C)[C@@H]([C@H](C)/C=C/[C@H](C)C(C)C)CC[C@@H]23)C[C@@H](O)C[C@@H]1O [DOXERCALCIFEROL]	%	5
CCc1cccc(CC)c1NC(=O)c1nn(C)c2c1CCc1cnc(Nc3ccc(C(=O)NC4CCN(C)CC4)cc3OC(F)(F)F)nc1-2	%	11
O=C(Nc1ccc(-n2nc(-c3cccnc3)cc2C(F)(F)F)cn1)c1ccc(-c2ccccc2)c(F)c1 [BI 2049]	%	6
O=C(Nc1ccc(Cl)cc1)Nc1cccc(-c2cccc(N3CCCC3)n2)c1	%	7
CCCn1c(=O)c2[nH]c(-c3cnn(Cc4cccc(C(F)(F)F)c4)c3)nc2n(CC)c1=O [GS 6201]	%	5
CN(C)C(=O)C(CCN1CCC(O)(c2ccc(Cl)cc2)CC1)(c1ccccc1)c1ccccc1.Cl [LOPERAMIDE HYDROCHLORIDE]	%	23
Cc1cn(-c2cc(NC(=O)c3ccc(C)c(Nc4nccc(-c5cccnc5)n4)c3)cc(C(F)(F)F)c2)cn1 [NILOTINIB]	%	3
Cc1cc(C)c(S(=O)(=O)N(Cc2ccc(-c3cccc(S(C)(=O)=O)c3)cc2)Cc2ccc(C(F)(F)F)o2)c(C)c1	%	5
CN1CCC(=C2c3ccccc3CC(=O)c3sccc32)CC1.O=C(O)/C=C/C(=O)O [KETOTIFEN FUMARATE]	%	11
Cl.Oc1ccc2c3c1O[C@H]1c4[nH]c5c(c4C[C@@]4(O)[C@@H](C2)N(CC2CC2)CC[C@]314)C[C@@]1(O)[C@H]2Cc3ccc(O)c4c3[C@@]1(CCN2CC1CC1)[C@H]5O4	%	5
S=C(NCCCc1c[nH]cn1)NCCCN(Cc1ccc(Cl)c(Cl)c1)c1ccc(Br)cn1	%	24
CCCS(=O)(=O)c1nc(NC2CC2)cc(-c2ccc3c(ccn3C3CC(C)(C)NC(C)(C)C3)c2)n1	%	20
CN1C2CCC1CC(OC(c1ccc(F)cc1)c1ccc(F)cc1)C2.Cl (stereo not given)	%	0
Cc1ccc(C(=O)Nc2cccc(C(F)(F)F)c2)cc1Nc1nc(-c2cccnc2)nc2c1cnn2C	%	14
